# measurement-description: The drug is tested on WLS-052 corresponding to human gut metagenome with ENA study accession number: PRJEB37062 and ENA sample accession number: ERS12561747 for biotransformation under anaerobic condition. The drug concentrations were measured over 9 timepoints collected between 0 and 24 hours of incubation by liquid-chromatography-coupled mass spectrometry (LC–MS); further: call rule not given here
# measurement-context: 2 µM
metric-name: Bacterial Biotransformation

Worked set:
CCOC(=O)[C@H](CCc1ccccc1)N[C@@H](C)C(=O)N1[C@H](C(=O)O)C[C@H]2CCCC[C@@H]21 :: Compound metabolized
CN1CC(=O)N2[C@H](c3ccc4c(c3)OCO4)c3[nH]c4ccccc4c3C[C@@H]2C1=O :: Compound metabolized
CC(C)N(CCC(C(N)=O)(c1ccccc1)c1ccccn1)C(C)C.O=P(O)(O)O (stereo unspecified) [DISOPYRAMIDE PHOSPHATE] :: Compound NOT metabolized
CCN(CC)CCOC(=O)C(Cc1cccc2ccccc12)CC1CCCO1.O=C(O)C(=O)O (stereo unspecified) [NAFRONYL OXALATE] :: Compound metabolized

## Task Which Bacterial Biotransformation value is on record for Nc1nc2ccc(OC(F)(F)F)cc2s1 ?
## Result Compound metabolized

## Task Which Bacterial Biotransformation value is on record for CC(C)NCC(O)COc1ccc(CCOCC2CC2)cc1 (stereo unspecified) ?
## Result Compound NOT metabolized

* * *

# measurement-context: human gut metagenome, 24 h, 2 µM
metric-name: Bacterial Biotransformation

Worked set:
CN1CCC(=C2c3ccccc3CCc3cccnc32)CC1.O=C(O)/C=C\C(=O)O.O=C(O)/C=C\C(=O)O [AZATADINE MALEATE] :: Compound NOT metabolized
CCCC1O[C@@H]2C[C@H]3[C@@H]4CCC5=CC(=O)C=C[C@]5(C)[C@H]4[C@@H](O)C[C@]3(C)[C@]2(C(=O)CO)O1 (stereo not given in full) [BUDESONIDE] :: Compound NOT metabolized
CN1CCc2c(c3ccccc3n2Cc2ccccc2)C1.CN1CCc2c(c3ccccc3n2Cc2ccccc2)C1.O=S(=O)(O)c1cccc2c(S(=O)(=O)O)cccc12 :: Compound NOT metabolized
COc1ccc2c(c1OC)C(=O)O[C@@H]2[C@H]1c2c(cc3c(c2OC)OCO3)CCN1C :: Compound NOT metabolized
CNCCC(Oc1ccc(C(F)(F)F)cc1)c1ccccc1 (stereo not given) :: Compound NOT metabolized
O=c1n(CCCN2CCN(c3cccc(Cl)c3)CC2)nc2ccccn12 :: Compound NOT metabolized

## Task Which Bacterial Biotransformation value is on record for Cc1cc2c(cc1S(N)(=O)=O)S(=O)(=O)CCC2 ?
## Result Compound NOT metabolized

## Task Which Bacterial Biotransformation value is on record for CC(C)(Oc1ccc(CCNC(=O)c2ccc(Cl)cc2)cc1)C(=O)O [BEZAFIBRATE] ?
## Result Compound metabolized

## Task Which Bacterial Biotransformation value is on record for Nc1nc2ccc(OC(F)(F)F)cc2s1 ?
## Result Compound metabolized

## Task Which Bacterial Biotransformation value is on record for COc1ccc2[nH]c([S+]([O-])Cc3ncc(C)c(OC)c3C)nc2n1 (stereo not given) ?
## Result Compound metabolized

## Task Which Bacterial Biotransformation value is on record for O=C(O)CCc1nc(-c2ccccc2)c(-c2ccccc2)o1 ?
## Result Compound metabolized

## Task Which Bacterial Biotransformation value is on record for CCCC(=O)Nc1ccc(OCC(O)CNC(C)C)c(C(C)=O)c1 (stereo not given) ?
## Result Compound metabolized

## Task Which Bacterial Biotransformation value is on record for CCCCC1=NC2(CCCC2)C(=O)N1Cc1ccc(-c2ccccc2-c2nnn[nH]2)cc1 ?
## Result Compound NOT metabolized

## Task Which Bacterial Biotransformation value is on record for Cc1ccc(-c2cc(C(F)(F)F)nn2-c2ccc(S(N)(=O)=O)cc2)cc1 ?
## Result Compound NOT metabolized

## Task Which Bacterial Biotransformation value is on record for COC(=O)Nc1nc2ccc(C(=O)c3ccccc3)cc2[nH]1 ?
## Result Compound metabolized

## Task Which Bacterial Biotransformation value is on record for CC(=O)CC(c1ccccc1)c1c(O)c2ccccc2oc1=O (stereo not given) ?
## Result Compound metabolized

## Task Which Bacterial Biotransformation value is on record for CCC1(c2ccc(N)cc2)CCC(=O)NC1=O (stereo not given) [AMINOGLUTETHIMIDE] ?
## Result Compound NOT metabolized

## Task Which Bacterial Biotransformation value is on record for O=C1[C@H](CC[C@H](O)c2ccc(F)cc2)[C@@H](c2ccc(O)cc2)N1c1ccc(F)cc1 ?
## Result Compound NOT metabolized

* * *

# measurement-description: The drug is tested on WLS-007 corresponding to human gut metagenome with ENA study accession number: PRJEB37062 and ENA sample accession number: ERS12561742 for biotransformation under anaerobic condition. The drug concentrations were measured over 9 timepoints collected between 0 and 24 hours of incubation by liquid-chromatography-coupled mass spectrometry (LC–MS)
# measurement-context: 2 µM
metric-name: Bacterial Biotransformation

Worked set:
COc1ccc(CCN(C)CCCC(C#N)(c2ccc(OC)c(OC)c2)C(C)C)cc1OC (stereo unspecified) :: Compound metabolized
Cc1cc2c(cc1S(N)(=O)=O)S(=O)(=O)CCC2 :: Compound NOT metabolized
CCCCC1=NC2(CCCC2)C(=O)N1Cc1ccc(-c2ccccc2-c2nnn[nH]2)cc1 :: Compound metabolized
CS(=O)(=O)O.OC(CCN1CCCCC1)(c1ccccc1)c1ccccc1 [PRIDINOL METHANESULFONATE] :: Compound NOT metabolized
CCCc1nc(C(C)(C)O)c(C(=O)OCc2oc(=O)oc2C)n1Cc1ccc(-c2ccccc2-c2nnn[nH]2)cc1 :: Compound metabolized

From here, focus on the item given below.
## Task Which Bacterial Biotransformation value is on record for Cc1ccnc2c1NC(=O)c1cccnc1N2C1CC1 ?
## Result Compound metabolized

* * *

# measurement-description: The drug is tested on Z-011 corresponding to mouse gut metagenome with ENA study accession number: PRJEB37062 and ENA sample accession number: ERS12561811 for biotransformation under anaerobic condition. The drug concentrations were measured over 9 timepoints collected between 0 and 24 hours of incubation by liquid-chromatography-coupled mass spectrometry (LC–MS)
# measurement-context: 2 µM
metric-name: Bacterial Biotransformation

CN1C(C(=O)Nc2ccccn2)=C(O)c2sccc2S1(=O)=O :: Compound NOT metabolized
Cc1nc2n(c(=O)c1CCN1CCC(c3noc4cc(F)ccc34)CC1)CCCC2 :: Compound metabolized
O=c1n(CCCN2CCN(c3cccc(Cl)c3)CC2)nc2ccccn12 :: Compound NOT metabolized
CNC(=C[N+](=O)[O-])NCCSCc1csc(CN(C)C)n1 :: Compound metabolized

* * *

# measurement-context: human gut metagenome, 24 h, 2 µM
metric-name: Bacterial Biotransformation

Nc1c2c(nc3ccccc13)CCCC2 [TACRINE] :: Compound NOT metabolized
C=CCN1CC[C@]23c4c5ccc(O)c4O[C@H]2C(=O)CC[C@@]3(O)[C@H]1C5 [NALOXONE] :: Compound NOT metabolized

* * *

# measurement-description: The drug is tested on Z-024 corresponding to pig gut metagenome with ENA study accession number: PRJEB37062 and ENA sample accession number: ERS12561823 for biotransformation under anaerobic condition. The drug concentrations were measured over 9 timepoints collected between 0 and 24 hours of incubation by liquid-chromatography-coupled mass spectrometry (LC–MS)
# measurement-context: 2 µM
metric-name: Bacterial Biotransformation

CC(CN(C)C)CN1c2ccccc2CCc2ccccc21.O=C(O)/C=C\C(=O)O (centres undefined) [TRIMIPRAMINE MALEATE] :: Compound metabolized
CC(=O)OCC(=O)[C@@]1(O)[C@@H](C)C[C@H]2[C@@H]3CCC4=CC(=O)C=C[C@]4(C)[C@@]3(F)[C@@H](O)C[C@@]21C [BETAMETHASONE ACETATE] :: Compound metabolized
CCCC(=O)Nc1ccc(OCC(O)CNC(C)C)c(C(C)=O)c1 (centres undefined) :: Compound NOT metabolized
Cc1nc2n(c(=O)c1CCN1CCC(c3noc4cc(F)ccc34)CC1)CCCC2O (centres undefined) :: Compound metabolized
CN(C)CC(c1ccc(O)cc1)C1(O)CCCCC1.O=C(O)CCC(=O)O (centres undefined) [DESVENLAFAXINE SUCCINATE] :: Compound NOT metabolized

## Task Which Bacterial Biotransformation value is on record for CC(C)NCC(O)COc1ccc(CCOCC2CC2)cc1 (centres undefined) ?
## Result Compound metabolized

## Task Which Bacterial Biotransformation value is on record for CN1CCC(=C2c3ccccc3CCc3cccnc32)CC1.O=C(O)/C=C\C(=O)O.O=C(O)/C=C\C(=O)O [AZATADINE MALEATE] ?
## Result Compound NOT metabolized

## Task Which Bacterial Biotransformation value is on record for NC12CC3CC(CC(C3)C1)C2 ?
## Result Compound NOT metabolized

## Task Which Bacterial Biotransformation value is on record for CC(C)NCC(O)c1ccc(NS(C)(=O)=O)cc1 (centres undefined) ?
## Result Compound NOT metabolized

## Task Which Bacterial Biotransformation value is on record for C=CCc1ccccc1OCC(O)CNC(C)C (centres undefined) ?
## Result Compound metabolized

## Task Which Bacterial Biotransformation value is on record for CC(C)(C)NC[C@H](O)COc1ccccc1C1CCCC1.CC(C)(C)NC[C@H](O)COc1ccccc1C1CCCC1.O=S(=O)(O)O [PENBUTOLOL SULFATE] ?
## Result Compound metabolized

## Task Which Bacterial Biotransformation value is on record for NS(=O)(=O)c1cc2c(cc1Cl)N=C(CSCc1ccccc1)NS2(=O)=O [BENZTHIAZIDE] ?
## Result Compound metabolized

## Task Which Bacterial Biotransformation value is on record for CN(C)CCC=C1c2ccccc2C=Cc2ccccc21 ?
## Result Compound metabolized

## Task Which Bacterial Biotransformation value is on record for CCN1CCCC1CNC(=O)c1cc(S(N)(=O)=O)ccc1OC (centres undefined) [SULPIRIDE] ?
## Result Compound NOT metabolized

## Task Which Bacterial Biotransformation value is on record for CN(C)CCc1c[nH]c2ccc(Cn3cncn3)cc12.O=C(O)c1ccccc1 [RIZATRIPTAN BENZOATE] ?
## Result Compound NOT metabolized

## Task Which Bacterial Biotransformation value is on record for Nc1ccc(/N=N/c2ccccc2)c(N)n1 ?
## Result Compound metabolized

## Task Which Bacterial Biotransformation value is on record for Clc1ccc(Cn2c(CN3CCCC3)nc3ccccc32)cc1 ?
## Result Compound metabolized

## Task Which Bacterial Biotransformation value is on record for Cc1ccc(S(=O)(=O)NC(=O)NN2CCCCCC2)cc1 [TOLAZAMIDE] ?
## Result Compound metabolized

## Task Which Bacterial Biotransformation value is on record for CCCCCOC(=O)Nc1nc(=O)n([C@@H]2O[C@H](C)[C@@H](O)[C@H]2O)cc1F ?
## Result Compound metabolized
